Assay: Prodrug conversion in human primary hepatocytes assessed as nucleotide triphosphate level at 100 uM incubated for 4 hrs followed by compound wash-out for 20 hrs and measured following 4 hrs incubation period by LC-MS/MS analysis
Assay type: ADME, cell-based, Hepatocyte
Property: Drug metabolism (µM)
One number for each entry, in µM.

Some solved cases for reference:
CC(C)OC(=O)[C@H](C)N[P@](=O)(OC[C@H]1O[C@@H](n2ccc(=O)[nH]c2=O)[C@](C)(F)[C@@H]1O)Oc1ccccc1 | 97
CCOC(=O)C(C)(C)N[P@](=O)(OC[C@H]1O[C@@H](n2ccc(=O)[nH]c2=O)[C@@](F)(Br)[C@@H]1O)Oc1ccccc1 | 3600

List the reported Drug metabolism of each compound below.
1. CCOC(=O)C(C)(C)N[P@](=O)(OC[C@H]1O[C@@H](n2ccc(=O)[nH]c2=O)[C@](Cl)(Br)[C@@H]1O)Oc1ccccc1
2. CC(C)OC(=O)[C@H](C)N[P@](=O)(OC[C@H]1O[C@@H](n2ccc(=O)[nH]c2=O)[C@@](F)(Br)[C@@H]1O)Oc1ccccc1
3. CC(C)OC(=O)[C@H](C)N[P@](=O)(OC[C@H]1O[C@@H](n2ccc(=O)[nH]c2=O)[C@](Cl)(Br)[C@@H]1O)Oc1ccccc1
4. CC(C)OC(=O)C(C)(C)NP(=O)(OC[C@H]1O[C@@H](n2ccc(=O)[nH]c2=O)[C@](Cl)(Br)[C@@H]1O)Oc1ccccc1 (some centres not stated)
5. CC(C)OC(=O)[C@H](C)N[P@@](=O)(OC[C@H]1O[C@@H](n2ccc(=O)[nH]c2=O)[C@](Cl)(Br)[C@@H]1O)Oc1ccccc1

Result:
2818
192
110
157
102

----------
For each entry below, report its CLint scaled value.
Experiment: Intrinsic clearance in dog hepatocytes
Format: ADME, cell-based, Canis lupus familiaris, Hepatocyte
Conditions: read-out: CLH (converted)
Answers are plain numbers, in mL/min/kg.

These recorded examples may help you get a feel for the data.
CC(C)OC(=O)[C@H](C)N[P@](=O)(OC[C@H]1O[C@@H](n2ccc(=O)[nH]c2=O)[C@](Cl)(Br)[C@@H]1O)Oc1ccccc1 | 113
CC(C)OC(=O)C(C)(C)NP(=O)(OC[C@H]1O[C@@H](n2ccc(=O)[nH]c2=O)[C@](Cl)(Br)[C@@H]1O)Oc1ccccc1 (stereo partly specified) | 133
CCOC(=O)C(C)(C)N[P@](=O)(OC[C@H]1O[C@@H](n2ccc(=O)[nH]c2=O)[C@@](F)(Br)[C@@H]1O)Oc1ccccc1 | 123

Quick one: give me CLint scaled for each item below, same order please.
1. CCOC(=O)C(C)(C)N[P@@](=O)(OC[C@H]1O[C@@H](n2ccc(=O)[nH]c2=O)[C@](Cl)(Br)[C@@H]1O)Oc1ccccc1
2. CCOC(=O)C(C)(C)N[P@](=O)(OC[C@H]1O[C@@H](n2ccc(=O)[nH]c2=O)[C@](Cl)(Br)[C@@H]1O)Oc1ccccc1
3. CC(C)OC(=O)[C@H](C)N[P@](=O)(OC[C@H]1O[C@@H](n2ccc(=O)[nH]c2=O)[C@](C)(F)[C@@H]1O)Oc1ccccc1 [SOFOSBUVIR]

Result:
[98.3, 200, 40]

----------
Assay: Prodrug conversion in Beagle dog liver assessed as nucleotide triphosphate level at 5 mg/kg, po administered as single dose measured after 24 hrs by LC-MS/MS analysis
Assay type: ADME, organism-based, Canis lupus familiaris
Conditions: in vivo
Assign y to entries whose Drug metabolism meets or exceeds 3 µM; assign n to the rest.

CCOC(=O)C(C)(C)N[P@@](=O)(OC[C@H]1O[C@@H](n2ccc(=O)[nH]c2=O)[C@](Cl)(Br)[C@@H]1O)Oc1ccccc1 | n

Query: I'd appreciate it if you could say whether CCOC(=O)C(C)(C)N[P@](=O)(OC[C@H]1O[C@@H](n2ccc(=O)[nH]c2=O)[C@@](F)(Br)[C@@H]1O)Oc1ccccc1 has Drug metabolism at least equal to 3 µM.
Result: y

Query: Given CCOC(=O)C(C)(C)N[P@](=O)(OC[C@H]1O[C@@H](n2ccc(=O)[nH]c2=O)[C@](Cl)(Br)[C@@H]1O)Oc1ccccc1 , state whether its Drug metabolism is at least 3 µM.
Result: n

Query: Does the molecule CC(C)OC(=O)C(C)(C)NP(=O)(OC[C@H]1O[C@@H](n2ccc(=O)[nH]c2=O)[C@](Cl)(Br)[C@@H]1O)Oc1ccccc1 (some centres not stated) have recorded Drug metabolism that is 3 µM or more?
Result: n

Query: Reported Drug metabolism at or above 3 µM? CC(C)OC(=O)[C@H](C)N[P@](=O)(OC[C@H]1O[C@@H](n2ccc(=O)[nH]c2=O)[C@](Cl)(Br)[C@@H]1O)Oc1ccccc1
Result: n

Query: Evaluate CC(C)OC(=O)[C@H](C)N[P@](=O)(OC[C@H]1O[C@@H](n2ccc(=O)[nH]c2=O)[C@@](F)(Br)[C@@H]1O)Oc1ccccc1 : Drug metabolism at minimum 3 µM?
Result: y

Query: Check this molecule for Drug metabolism at or above 3 µM: CC(C)OC(=O)[C@H](C)N[P@@](=O)(OC[C@H]1O[C@@H](n2ccc(=O)[nH]c2=O)[C@](Cl)(Br)[C@@H]1O)Oc1ccccc1
Result: n

src = ChEMBL document CHEMBL4609978
